- experimental-protocol: Pharmacokinetic study, 4ET-01-021 with IV and PO dosing
- Format: in vivo, CD-1 male mice
- assay-conditions: male, CD-1, mouse, plasma; IV 1.0 mg/kg, mean of 3 animals

{"molecule": "CCC1=CC2(CCC1)NC(=O)c1c(C)cc(Nc3cc(N)ncn3)c(=O)n12 (stereo not shown) [Compound 4ET-01-021]", "MRT inf": "8.32 h"}

###

- experimental-protocol: Pharmacokinetic study, 4ET-01-021 with IV and PO dosing
- Format: in vivo, CD-1 male mice
- assay-conditions: male, CD-1, mouse, plasma, po; orally dosed at 3 mg/kg, mean of 3 animals

{"compound": "CCC1=CC2(CCC1)NC(=O)c1c(C)cc(Nc3cc(N)ncn3)c(=O)n12 (stereo not shown)", "half-life (h)": 7.11}

###

- experimental-protocol: Pharmacokinetic study, 4ET-03-009 at 10 mg/kg oral
- Format: in vivo, CD-1 male mice
- assay-conditions: male, CD-1, mouse, plasma, oral, 10 mg/kg, 4 hours, read-out: Plasma Conc. (per mouse n = 3)

{"structure-as-smiles": "Cc1cc(Nc2cc(NC(=O)C3CC3)ncn2)c(=O)n2c1C(=O)NC21CCOCC1", "unit-annotation": "ng/mL", "concentration at 4 h": 104}

###

Listed here: items and their measured pIC50.
- tgt: MNK2 (Homo sapiens, UniProt Q9HBH9)
- Sequence (Q9HBH9 whole entry): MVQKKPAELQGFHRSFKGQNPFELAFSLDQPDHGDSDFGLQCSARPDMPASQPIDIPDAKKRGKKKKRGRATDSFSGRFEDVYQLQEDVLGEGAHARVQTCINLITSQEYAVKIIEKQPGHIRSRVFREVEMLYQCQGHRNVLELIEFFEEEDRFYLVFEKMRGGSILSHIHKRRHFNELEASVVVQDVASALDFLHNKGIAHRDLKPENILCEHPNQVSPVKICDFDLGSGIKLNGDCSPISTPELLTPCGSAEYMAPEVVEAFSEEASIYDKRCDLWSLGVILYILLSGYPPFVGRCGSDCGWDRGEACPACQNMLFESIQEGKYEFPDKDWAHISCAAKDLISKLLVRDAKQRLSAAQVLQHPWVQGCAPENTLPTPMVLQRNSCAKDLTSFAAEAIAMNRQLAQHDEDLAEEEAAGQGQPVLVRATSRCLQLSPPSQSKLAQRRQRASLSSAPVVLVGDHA
- experimental-protocol: MNK2 substrate phosphorylation assay
- assay-conditions: recombinant human kinase
pIC50: −log10 of the molar value.
metric: pIC50

{"compound": "Cc1cc(Nc2cc(N)ncn2)c(=O)n2c1C(=O)NC2(C)C", "value-reported": 8.70}
{"compound": "Cc1cc(Nc2cc(NCCNS(C)(=O)=O)ncn2)c(=O)n2c1C(=O)NC21CCOCC1", "value-reported": 7.48}
{"compound": "CCC1=CC2(CCC1)NC(=O)c1c(C)cc(Nc3cc(N)ncn3)c(=O)n12 (stereo not shown)", "value-reported": 8.24}
{"compound": "Cc1cc(Nc2cc(NCCO)ncn2)c(=O)n2c1C(=O)NC2(C)C", "value-reported": 8.11}

###

- experimental-protocol: Pharmacokinetic study, 4ET-01-021 with IV and PO dosing
- Format: in vivo, CD-1 male mice
- assay-conditions: male, CD-1, mouse, plasma; IV 1.0 mg/kg, mean of 3 animals; read-out: Clast
metric: concentration at 24 h

{"compound": "CCC1=CC2(CCC1)NC(=O)c1c(C)cc(Nc3cc(N)ncn3)c(=O)n12 (stereo not shown)", "value-reported": "19.3 ng/mL"}

###

- experimental-protocol: Pharmacokinetic study, 4ET-03-009 at 20 mg/kg oral
- Type: in vivo, CD-1 male mice
- assay-conditions: male, CD-1, mouse, plasma, po, 20 mg/kg, individual animals, read-out: AUC0-8 hours

{"compound": "Cc1cc(Nc2cc(NC(=O)C3CC3)ncn2)c(=O)n2c1C(=O)NC21CCOCC1 [Compound 4ET-03-009]", "unit-annotation": "ng·h/mL", "AUC(0-t)": 2130}

###

- experimental-protocol: Pharmacokinetic study, 4ET-03-009 at 10 mg/kg oral
- Format: in vivo, CD-1 male mice
- assay-conditions: male, CD-1, mouse, plasma, po, 10 mg/kg, individual animals

{"compound": "Cc1cc(Nc2cc(NC(=O)C3CC3)ncn2)c(=O)n2c1C(=O)NC21CCOCC1 [Compound 4ET-03-009]", "AUC(0-inf) / ng·h/mL": 1460}
